- System Under Test: T1, recombinant human IL-6R-extracellular domain (ECD) (human, UniProt P08887 20-365)
- T1 construct: extracellular domain; also called IL-6R-ECD
- T1 sequence (looked up): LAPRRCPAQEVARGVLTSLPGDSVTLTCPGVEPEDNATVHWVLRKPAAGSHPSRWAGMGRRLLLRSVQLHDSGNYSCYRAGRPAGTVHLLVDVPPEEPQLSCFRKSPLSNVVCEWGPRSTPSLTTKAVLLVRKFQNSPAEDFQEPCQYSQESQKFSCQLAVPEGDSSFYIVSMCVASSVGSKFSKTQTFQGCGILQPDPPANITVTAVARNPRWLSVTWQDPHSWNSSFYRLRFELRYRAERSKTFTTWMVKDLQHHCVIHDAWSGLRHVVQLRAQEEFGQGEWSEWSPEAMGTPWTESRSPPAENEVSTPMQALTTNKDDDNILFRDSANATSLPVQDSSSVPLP
- Procedure Details: direct ELISA on IL-6R
Kindly supply the reported EC50 values for the records listed here.
Answers are plain numbers, in µg/mL.

humanized clone #36 anti-IL-6R antibody (antibody, human IgG1, kappa, V domains shown, Humanized VH cloned into human IgG1 CH vector, humanized VK into human CK vector; also called Humanized 36; humanized 36) VH: EVQLVESGGGLVQPGGSLRLSCAVSGFSLSSYYMSWVRQAPGKGLEWIGITTTSTNTFYASWAKGRFTISKDSSKNTVYLQMNSPRAEDTAVYFCARYGGNSAYYAFSLWGQGTLVTVSS VL: DIQMTQSPSSLSASVGDRVTISCQSSQSVYNNNYLAWFQQKPGKPPKLLIYGASNLASGVPSRFSGSGSGTQFTLTISSLQPEDVATYYCQGYYNGVIFVFGGGTKVEIKR
0.0216
clone 36 rabbit anti-IL-6R antibody (antibody, V domains shown) VH: QSVEESGGRLVTPGTPLTLTCTVSGFSLSSYYMSWVRQAPGKGLEWIGITTTSTNTFYASWAKGRFTISKTSATVDLKITSPTIEDTATYFCARYGGNSAYYAFSLWGQGTLVTVSS VL: QVLTQTASSVSAAVGGTVTISCQSSQSVYNNNYLAWFQQKPGQPPKLLIYGASNLASGVPSRFKGSGSGTQFTLTISDLECDNAATYYCQGYYNGVIFVFGGGTEVVVK
0.0595

Could you now look at the following binder, please?
-- ask Please look up its EC50: humanized clone #51 anti-IL-6R antibody (antibody, human IgG1, kappa, V domains shown, Humanized VH cloned into human IgG1 CH vector, humanized VK into human CK vector; also called Humanized 51; humanized 51) VH: EVQLVESGGGLVQPGGSLRLSCAASGFDISSYSLQWVRQSPGKGLEYIGFIRPDGSAHYATWAKGRFTISKDSSKNTVYLQMNSLRAEDTAVYFCARDDISSDYFPNLWGPGTLVTVSS VL: DIQMTQSPSTLSASVGDRVTISCQASESVYNKNNLAWYQQKPGKPPKLLIYDASDLASGVPSRFSGSGSGTQFTLTISSLQPDDFATYYCAGGGSGNVYDFGGGTKVEIKR
-- reply 0.0169

Each recorded value in this set is attributed to patent US20120225060A1.
